Entries and their melting point

Data request: Consider the compound CNc1nc(C=CC(=O)OC)c(-c2ccncc2)s1 . State its measured melting point.
Data returned: 166 to 167 °C

Data request: Consider the compound C=Cc1ccc(ON2C(=O)c3ccccc3C2=O)cc1 . State its measured melting point.
Data returned: 129 to 131 °C

Data request: Consider the compound COC(=O)c1ccccc1S(=O)(=O)NC(=O)c1cc(C)n(C)n1 . State its measured melting point.
Data returned: 176 to 177 °C

***
Data request: Consider the compound CS(=O)(=O)c1ccc(Oc2cc(OCc3ccccc3)c3[nH]c(C4=NCC(CC(=O)O)S4)cc3c2)cc1 (configuration not stated) . State its measured melting point.
Data returned: 218 to 219 °C

Data request: Consider the compound Cc1nc2cc(NC(=O)c3cc4cc(-c5ccccc5)ncc4n3Cc3cccc(F)c3)ccc2n1C . State its measured melting point.
Data returned: 288 to 290 °C

* * *

Entries and their melting point

The following compounds have reported results that may help.
Data request: Consider the compound CC(C)COc1ccc(C(=O)NCC(=O)O)cc1 . State its measured melting point.
Data returned: 140 to 142 °C

Data request: Consider the compound CC1(C)CN(Cc2ccccc2)c2cc(Cl)cc(C(=O)NC3CN4CCC3CC4)c2O1 (centres undefined) . State its measured melting point.
Data returned: 174 to 175 °C

Data request: Consider the compound CC(C)CN=C1C(c2ccccc2)=C(c2ccccc2)C(c2ccccc2)=C1c1ccccc1 . State its measured melting point.
Data returned: 158 °C

Moving on to the next compound.
Data request: Consider the compound Cn1c(=O)c(-c2nnn(Cc3cccc(OCc4ccc5ccccc5n4)c3)n2)cc2cc(OCCCN3CCN(Cc4ccc5ccccc5n4)CC3)ccc21 . State its measured melting point.
Data returned: 174 to 178 °C

* * *

Entries and their melting point

Data request: Consider the molecule CC1(C)OC(=S)Nc2ccc(-c3ccc(F)c(Cl)c3)cc21 . State its measured melting point.
Data returned: 196 to 197 °C

Data request: Consider the molecule Fc1ccc(-c2ncnc(C(F)F)c2Cl)c(F)c1 . State its measured melting point.
Data returned: 69 to 71 °C

Data request: Consider the molecule CN(C)c1ccc(/C=C\c2ccc3c(=O)[nH]ncc3c2)cc1 . State its measured melting point.
Data returned: 312 to 318 °C

Data request: Consider the molecule CCNC=C(C(=O)OCC)C(=O)c1cc(F)c(F)c(C)c1F . State its measured melting point.
Data returned: 110 °C

***
Data request: Consider the molecule O=c1[nH]c2ncc(-c3ccc(O)cc3)nc2n1C1CCCCC1 . State its measured melting point.
Data returned: 318 to 320 °C

Data request: Consider the molecule O=[N+]([O-])c1ccc(CP2(=O)OCCCO2)cc1 . State its measured melting point.
Data returned: 144 to 145 °C

Data request: Consider the molecule CC(=O)OC1CC=C(CCCCCCC(=O)O)C1=O (stereo unspecified) . State its measured melting point.
Data returned: 62 to 65 °C

Data request: Consider the molecule O=S(=O)(Nc1ccc2c(OCc3ccc(-c4ccc(F)cc4)cc3F)cccc2c1)C(F)(F)F . State its measured melting point.
Data returned: 134 to 136 °C

Data request: Consider the molecule Nc1cnccc1CNC(=O)C1Cc2ccccc2N1S(=O)(=O)c1ccc(-c2cccc(C(F)(F)F)c2)cc1 (stereo unspecified) . State its measured melting point.
Data returned: 105 to 108 °C

Data request: Consider the molecule COc1cccc2c1N(S(=O)(=O)c1ccc(-c3ccc(F)cc3F)cc1)C(C(=O)NCc1ccc(C(=O)O)cc1)C2 (stereo unspecified) . State its measured melting point.
Data returned: 218 °C
